biological target: G-protein coupled receptor 6 (Homo sapiens, UniProt P46095); test: Modulation activity at GPR6 receptor (unknown origin) expressed in CHO-K1 cells assessed as inhibition of constitutive cAMP activity incubated for 45 mins by Perkin Elmer Lance HTRF Ultrac-AMP assay; assay type: functional, cell-based
Sequence (P46095 whole entry): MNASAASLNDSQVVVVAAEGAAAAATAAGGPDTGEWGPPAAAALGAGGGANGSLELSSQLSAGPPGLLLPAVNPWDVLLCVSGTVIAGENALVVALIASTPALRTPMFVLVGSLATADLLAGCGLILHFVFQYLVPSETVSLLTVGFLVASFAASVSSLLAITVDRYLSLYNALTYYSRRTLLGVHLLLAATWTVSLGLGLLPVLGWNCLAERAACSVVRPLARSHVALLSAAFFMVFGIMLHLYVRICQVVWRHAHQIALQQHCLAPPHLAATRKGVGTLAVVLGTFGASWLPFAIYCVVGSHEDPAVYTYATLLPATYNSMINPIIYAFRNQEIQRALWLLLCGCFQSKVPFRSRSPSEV
pIC50: −log10 of the molar value.
pIC50 listing for selected molecules.
OBSERVATION_TYPE: pIC50

MOLECULE	OBSERVATION_TYPE	VALUE
CC1Cc2nc(NCC(F)F)c(N3CCC(Oc4ccc(F)cc4F)CC3)nc2CN1C(=O)C1CC1 (stereo unspecified)	pIC50	7.62
COCC(=O)N1CCc2nc(N3CCC(Oc4ccc(F)cc4F)CC3)c(NCC(F)F)nc2C1C (stereo unspecified)	pIC50	6.68
CO[C@H](C)C(=O)N1CCc2nc(NCC(F)F)c(N3CCC(Oc4ccc(F)cc4F)CC3)nc2C1	pIC50	8.18
CN(C)C(=O)N1CCc2nc(N3CCC(Oc4ccc(F)cc4F)CC3)c(NCC(F)F)nc2C1	pIC50	7.57
CO[C@@H](C)C(=O)N1CCc2nc(NCC(F)F)c(N3CCC(Oc4ccc(F)cc4F)CC3)nc2C1	pIC50	8.08
CC(C)Nc1nc2c(nc1N1CCC(Oc3ccc(F)cc3F)CC1)C(C)N(C(=O)C1CC1)CC2 (stereo unspecified)	pIC50	6.59
CC(C)Nc1nc2c(nc1N1CCC(Oc3ccc(F)cc3F)CC1)CCN(C(=O)N1CCCC1)C2	pIC50	6.41
CC1Cc2nc(NCC(F)F)c(N3CCC(Oc4ccc(F)cc4F)CC3)nc2CN1C(=O)N(C)C (stereo unspecified)	pIC50	7.50
CC(=O)N1CCc2nc(NC(C)C)c(N3CCC(C(=O)c4cc(Cl)ccc4F)CC3)nc2C1	pIC50	8.01
CS(=O)(=O)N1CCc2nc(N3CCC(Oc4ccc(F)cc4F)CC3)c(NCC(F)F)nc2C1	pIC50	7.24
COC(C)C(=O)N1CCc2nc(N3CCC(Oc4ccc(F)cc4F)CC3)c(NC(C)C)nc2C1 (stereo unspecified)	pIC50	7.77
COCCNC(=O)N1CCc2nc(N3CCC(Oc4ccc(F)cc4F)CC3)c(NC(C)C)nc2C1	pIC50	7.53
CC(C)Nc1nc2c(nc1N1CCC(C(=O)c3cc(Cl)ccc3F)CC1)CN(C(=O)N(C)C)CC2	pIC50	7.60
CC1Cc2nc(NCC(F)F)c(N3CCC(Oc4ccc(F)cc4F)CC3)nc2CN1S(C)(=O)=O (stereo unspecified)	pIC50	7.98
CC(C)Nc1nc2c(nc1N1CCC(Oc3ccc(C#N)cc3F)CC1)CN(C(=O)C1CC1)CC2	pIC50	6.91
CC(C)Nc1nc2c(nc1N1CCC(Oc3ccc(F)cc3F)CC1)CCN(C(=O)C1CCCO1)C2 (stereo unspecified)	pIC50	7.75
CN(C)C(=O)N1CCc2nc(NCC(F)F)c(N3CCC(Oc4ccc(F)cc4F)CC3)nc2C1	pIC50	8.04
CC1c2nc(N3CCC(Oc4ccc(F)cc4F)CC3)c(NCC(F)F)nc2CCN1S(C)(=O)=O (stereo unspecified)	pIC50	7.28
CC(C)Nc1nc2c(nc1N1CCC(Oc3ccc(F)cc3F)CC1)CN(C(=O)N(C)C)CC2	pIC50	7.86
COc1ccc(OC2CCN(c3nc4c(nc3NC3CC3)CCN(C)C4)CC2)c(F)c1	pIC50	6.84
CO[C@H](C)C(=O)N1Cc2nc(N3CCC(Oc4ccc(F)cc4F)CC3)c(NCC(F)F)nc2CC1C (stereo partly specified)	pIC50	7.73
CO[C@H](C)C(=O)N1CCc2nc(N3CCC(Oc4ccc(F)cc4F)CC3)c(NCC(F)F)nc2C1	pIC50	7.19
CO[C@@H](C)C(=O)N1CCc2nc(N3CCC(Oc4ccc(F)cc4F)CC3)c(NCC(F)F)nc2C1	pIC50	6.95
CC(C)Nc1nc2c(nc1N1CCC(Oc3ccc(F)cc3F)CC1)CCN(S(=O)(=O)C(C)C)C2	pIC50	6.83
CC1c2nc(NCC(F)F)c(N3CCC(Oc4ccc(F)cc4F)CC3)nc2CCN1C(=O)C1CC1 (stereo unspecified)	pIC50	7.07
CC(C)Nc1nc2c(nc1N1CCC(Oc3ccc(F)cc3F)CC1)CCN(C(=O)N(C)C)C2	pIC50	7.98
CC(C)Nc1nc2c(nc1N1CCC(Oc3ccc(F)cc3F)CC1)CCN(C(=O)N1CCOCC1)C2	pIC50	7.20
CC1Cc2nc(NCC(F)F)c(N3CCC(Oc4ccc(F)cc4F)CC3)nc2CN1C (stereo unspecified)	pIC50	7.63
COCCNC(=O)N1CCc2nc(NC(C)C)c(N3CCC(Oc4ccc(F)cc4F)CC3)nc2C1	pIC50	7.83
CC(=O)N1CCc2nc(NC(C)C)c(N3CCC(Oc4ccc(F)cc4F)CC3)nc2C1	pIC50	8.02
CC1Cc2nc(NCC(F)F)c(N3CCC(Oc4ccc(F)cc4F)CC3)nc2CN1C(=O)C(F)F (stereo unspecified)	pIC50	7.66
CC(C)Nc1nc2c(nc1N1CCC(C(F)c3ccc(F)cc3F)CC1)CN(C(=O)N(C)C)CC2 (stereo unspecified)	pIC50	7.63
CC(C)Nc1nc2c(nc1N1CCC(Oc3ccc(F)cc3F)CC1)CN(C(=O)C1CCCO1)CC2 (stereo unspecified)	pIC50	7.71
O=C(C(F)F)N1CCc2nc(N3CCC(Oc4ccc(F)cc4F)CC3)c(NCC(F)F)nc2C1	pIC50	7.10
COc1ccc(OC2CCN(c3nc4c(nc3NC3CCC3)CN(C(C)=O)CC4)CC2)c(F)c1	pIC50	7.70
CC(C)Nc1nc2c(nc1N1CCC(Oc3ccc(F)cc3F)CC1)CCN(C(=O)c1ccno1)C2	pIC50	7.41
